Values were extracted from PubChem BioAssay AID1845217.

Tested on: VA-ES-BJ tumor spheroid viability
Test: Anticancer human tumor VA-ES-BJ cell line growth inhibition;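 note: spheroids exposed to compounds for seven days; percent of DMSO vehicle control viability so 100% = untreated growth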
Conditions: second compound 0.0003 µM; first compound 0.0949 µM; hits give low values; spheroids with HUVEC and MSC
endpointLabel: viability, T/C

{"compound": "O=C(c1cc(Cc2n[nH]c(=O)c3ccccc23)ccc1F)N1CCN(C(=O)C2CC2)CC1 + COc1cc2c(cc1O)CCNC21CSC2c3c(OC(C)=O)c(C)c4c(c3C(COC1=O)N1C(O)C3Cc5cc(C)c(OC)c(O)c5C(C21)N3C)OCO4", "viability, T/C": "44.3%"}
{"compound": "CNCc1ccc(-c2cc(-c3nc(-c4ccc(S(=O)(=O)C(C)C)cc4)cnc3N)on2)cc1 + COc1cc2c(cc1O)CCNC21CSC2c3c(OC(C)=O)c(C)c4c(c3C(COC1=O)N1C(O)C3Cc5cc(C)c(OC)c(O)c5C(C21)N3C)OCO4", "viability, T/C": "36.5%"}
{"compound": "Cn1ncnc1[C@H]1c2n[nH]c(=O)c3cc(F)cc(c23)N[C@@H]1c1ccc(F)cc1 + COc1cc2c(cc1O)CCNC21CSC2c3c(OC(C)=O)c(C)c4c(c3C(COC1=O)N1C(O)C3Cc5cc(C)c(OC)c(O)c5C(C21)N3C)OCO4", "viability, T/C": "23.9%"}

# next compound below
Please fill in: viability, T/C reported for Cc1sc2c(c1C)C(c1ccc(Cl)cc1)=NC(CC(=O)Nc1ccc(O)cc1)c1nnc(C)n1-2 (centres undefined) + COc1cc2c(cc1O)CCNC21CSC2c3c(OC(C)=O)c(C)c4c(c3C(COC1=O)N1C(O)C3Cc5cc(C)c(OC)c(O)c5C(C21)N3C)OCO4 = 23.7%
